System: Murine B16(F10) melanoma cells
ASSAY NAME: CellTiter 96 Aqueous One Solution Cell Proliferation Assay
Format: cell-based
CONDITION NOTES: 40 hour growth of B16 melanoma cells, 1000 cells/well; read-out: IC50, net absorbance at 490 nm
PROPERTY LABEL: IC50 (µM)
Report the value in µM with no unit label.

Q. // query IC50 value for entry CC(=O)Oc1ccc(OCC=C(C)CCC=C(C)CCC=C(C)C)cc1
A. 2.2
